Documented melting point across a set of molecules

CC(C)(C)OC(=O)n1ncc2c(-c3ccco3)nc(N)nc21 [Example 4] ... 261.9 to 262.7 °C
Nc1nc(-c2ccco2)c2cnn(CC(=O)NCCc3ccccc3)c2n1 [Example 44] ... 231.1 to 231.2 °C
Nc1nc(-c2ccco2)c2cnn(CC(=O)NCc3ccco3)c2n1 [Example 37] ... 247.9 to 249.4 °C

Give the value of melting point reported for the following: Clc1nc(-c2ccco2)c2cnn(CCc3ccccc3)c2n1 [Example 1]
85.1 to 85.6 °C

Check the records and state melting point for CCOC(=O)Cn1ncc2c(-c3ccco3)nc(N)nc21 [Example 26]
177 to 177.1 °C

###

Entries annotated with measured melting point
Where a name gives a salt, the structure may show the parent alone.

CC(C)n1ncc2c(-c3ccco3)nc(N)nc21 (as salt: HCl) ... 191.4 to 191.5 °C
Nc1nc(-c2ccco2)c2cnn(CC(=O)Nc3ccccc3F)c2n1 ... 276.2 to 278.5 °C
Nc1cccc(Cn2ncc3c(-c4nnc[nH]4)nc(N)nc32)c1 ... 193.3 to 193.4 °C
Nc1nc(-c2ccco2)c2cnn(CC(=O)Nc3ccccc3)c2n1 ... 276.8 to 277.2 °C
Nc1nc(-c2nnc[nH]2)c2cnn(Cc3ccccc3F)c2n1 ... 287.9 °C

Answer with reported melting point of "Nc1nc(-c2ccco2)c2cnn(CC(=O)NCc3ccccc3)c2n1"
276.8 to 277.2 °C

Supply measured melting point of "Nc1cccc(Cn2ncc3c(-c4nccs4)nc(N)nc32)c1" in your reply.
177.8 to 178.3 °C

State its melting point: "Cc1ccc(Cn2ncc3c(-c4ccn[nH]4)nc(N)nc32)cc1"
265.8 °C

For the molecule "Nc1nc(-c2nccs2)c2cnn(Cc3cccc([N+](=O)[O-])c3)c2n1" , give its reported melting point.
193.3 to 193.4 °C

###

target: human adenosine A2A receptor (Homo sapiens); test: Binding affinities at hA2A receptors, displacement of [3H]-CGS 21680
TEST READOUT: Ki (nM)

Cc1cccc(Cn2ncc3c(-c4ccco4)nc(N)nc32)c1 ... 2

(1) Nc1nc(-c2nnc[nH]2)c2cnn(Cc3ccccc3F)c2n1
(2) Nc1nc(-c2ccco2)c2cnn(Cc3ccccc3F)c2n1
Out of 1 and 2 , name the one with the higher Ki. API: response body contains the label of the selected item.
1

(I) Nc1nc(-c2cccs2)c2cnn(Cc3ccccc3F)c2n1
(II) Nc1nc(-c2ccco2)c2cnn(CCCc3ccccc3)c2n1
I need your help: which of the pair I , II has higher Ki? Use the label to indicate which entry you chose.
I
(I: 5 nM, II: 2 nM)

###

target: human adenosine A2A receptor (Homo sapiens, UniProt P29274); assay: Binding affinities at hA2A receptors, displacement of [3H]-CGS 21680; settings: human adenosine A2A receptor, radioligand [3H]-CGS 21680
Sequence (P29274 whole entry): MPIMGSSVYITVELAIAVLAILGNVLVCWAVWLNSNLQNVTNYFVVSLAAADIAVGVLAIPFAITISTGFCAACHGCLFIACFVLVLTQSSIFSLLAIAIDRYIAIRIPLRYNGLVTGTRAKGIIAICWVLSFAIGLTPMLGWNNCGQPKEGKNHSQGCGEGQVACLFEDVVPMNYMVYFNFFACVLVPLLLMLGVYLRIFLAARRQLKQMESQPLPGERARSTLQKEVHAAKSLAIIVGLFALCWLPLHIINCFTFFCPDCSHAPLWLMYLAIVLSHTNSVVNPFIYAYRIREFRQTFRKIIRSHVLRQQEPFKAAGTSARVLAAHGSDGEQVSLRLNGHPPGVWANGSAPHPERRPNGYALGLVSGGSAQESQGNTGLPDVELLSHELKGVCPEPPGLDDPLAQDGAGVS
TEST READOUT: Ki (nM)

(I) Nc1nc(-c2ccco2)c2cnn(Cc3c(F)cccc3F)c2n1
(II) Nc1cccc(Cn2ncc3c(-c4ccco4)nc(N)nc32)c1
(III) Nc1nc(-c2ccco2)c2cnn(Cc3ccc(C(F)(F)F)cc3)c2n1
(IV) Nc1nc(-c2ccco2)c2cnn(Cc3ccccc3Cl)c2n1
Using the recorded Ki, list the entries above from smallest to largest. Returns: the labels listed in the requested order.
I, II, III, IV

(a) Nc1nc(-c2ccccn2)c2cnn(Cc3ccccc3F)c2n1
(b) COc1cccc(Cn2ncc3c(-c4ccco4)nc(N)nc32)c1
(c) Nc1nc(-c2ccco2)c2cnn(Cc3cccc([N+](=O)[O-])c3)c2n1
(d) Nc1nc(-c2ccco2)c2cnn(Cc3ccccc3N)c2n1
Your job: order these 4 records by Ki, ascending. Answer by writing out the labels in the requested order.
b, c, d, a

###

Where a name gives a salt, the structure may show the parent alone.
TEST READOUT: melting point

CCCCCn1ncc2c(-c3ccco3)nc(N)nc21 (as salt: HCl) ... 218 °C
Nc1nc(-c2ccco2)c2cnn(CC(=O)Nc3ccccn3)c2n1 (as salt: HCl) ... 249.8 to 249.9 °C
COc1cccc(Cn2ncc3c(-c4ccn[nH]4)nc(N)nc32)c1 ... 171 to 172 °C

Return melting point for the following compound: "COc1cccc(NC(=O)Cn2ncc3c(-c4ccco4)nc(N)nc32)c1"
267.4 to 271.5 °C

Given the compound "Nc1nc(-c2ccn[nH]2)c2cnn(Cc3cccc([N+](=O)[O-])c3)c2n1" , write its reported melting point.
278.5 to 279 °C

Values from patent US7629349B2
